# test: NCI Yeast Anticancer Drug Screen. Data for the bub3 strain (AID 167)
# conditionParameters: S. cerevisiae bub3 mutant strain, at 50.0 µM, stronger effect = higher value
The panel holds about 79,000 compounds, 15% with a hit somewhere; the sample as a whole holds those more often.
Consider the following compounds; for each one, report its growth inhibition.
Numbers only, in %.

A selection of reference data follows.
c1ccc(CNCCN(Cc2ccccc2)Cc2ccccc2)cc1: 30.4
COC(=O)c1nc(=S)[nH]c(C(=O)OC)c1C(=O)c1ccc(C)cc1: 10.6
O=C(O)c1cccc(C(=O)O)c1S(=O)Cc1ccccc1 (stereo unspecified): -17.1
CC(=O)[C@H]1CC[C@H]2[C@@H]3CC=C4N(CCO)C(=O)CC[C@]4(C)[C@H]3CC[C@]12C: 25.9
COc1cc(OC)c(NC(=O)C(Cl)(Cl)Cl)cc1Cl: 30.9

Let us examine a further case.
Ask: So what does the record say about growth inhibition for `CC(C)(C)SCC(=O)O` ?
Result: 6.75

---

# test: NCI Yeast Anticancer Drug Screen. Data for the rad50 strain (AID 155);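 also: 0% = growth of vehicle-only cultures of the same strain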
# conditionParameters: S. cerevisiae rad50 strain growth inhibition; at 50.0 µM; stronger effect = higher value
The panel holds about 79,000 compounds, 15% with a hit somewhere; the sample as a whole holds those more often.
Consider the following compounds; for each one, report its growth inhibition.
One number for each entry, in %.

A selection of reference data follows.
Cc1nc(N(C)C)oc(=O)c1Cc1ccccc1: -0.9
OCC(O)C(O)C(CN=Cc1ccccc1O)N=Cc1ccccc1O (configuration not stated): 5.05
OC1CC2C=CC1CC2 (configuration not stated): 14.9

// each listed compound needs a value for growth inhibition
1. COc1ccc(C(=O)N/N=C/c2ccccc2Cl)cc1
2. COC(=O)C1=C(C(=O)OC)C2C=CC1C1C(Cl)=C(Cl)C21 (configuration not stated)
3. COC(=O)/C(=C\SCc1ccccc1)NC(C)=O
4. CCN1C(=O)/C(=C\c2ccccc2)N=C1C

Result:
1. 1
2. -12
3. 0.45
4. 2.45

---

# test: NCI Yeast Anticancer Drug Screen. Data for the cln2 rad14 strain (AID 165);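 also: 0% = growth equal to vehicle treated cultures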
# conditionParameters: S. cerevisiae cln2 rad14 strain, at 50.0 µM, stronger effect = higher value
About 79,000 compounds went through this panel and 15% of them were active in at least one assay; those are over-represented in the sample as a whole.
Decide using growth inhibition: a value greater than or equal to 30% is label 1, a smaller one is label 0.

Before answering, review these 5 worked examples.
CC(C)(C(=O)Cc1ccccc1)c1ccccc1: label 1
CCOC(=O)c1c(Cl)c(CC)c(Cl)n2c1nc1ccccc12: label 0
C=C1CC[C@H]2C(C)=CC[C@@H]3[C@H](OC(=O)[C@H]3COC)[C@@H]12: label 0
Cc1[nH]c2ccccc2c1-c1cc(-c2cc(-c3c(C)[nH]c4ccccc34)nc(N)n2)nc(N)n1: label 0
CSc1nc2nc(C)[nH]c2c(=O)[nH]1: label 1

# next compound below
Ask: Hi team, for `CCCNc1nc(C)nc2[nH]cc(C)c12` , is the recorded growth inhibition at or above 30%?
Result: label 0

---

# test: NCI Yeast Anticancer Drug Screen. Data for the sgs1 mgt1 strain (AID 161);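 also: 0% = growth of cultures given vehicle only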
# conditionParameters: S. cerevisiae sgs1 mgt1 strain, at 50.0 µM, stronger effect = higher value
About 79,000 compounds went through this panel and 15% of them were active in at least one assay; those are over-represented in the sample as a whole.
Consider the following compounds; for each one, report its growth inhibition.
Answers are plain numbers, in %.

A selection of reference data follows.
N/C(=N/O)c1cn(C2OC(CO)C(O)C2O)c2ncnc(NO)c12 (configuration not stated): -0.2
O=C(NNC(=O)c1ccccc1Br)c1ccccc1: -5.4
O=C(Oc1ccc(OC(=O)c2ccccc2)c(C2CCCCCC2)c1)c1ccccc1: 25.1
O=C(Nc1ccc(Cl)cc1)OCCN(CCOC(=O)Nc1ccc(Cl)cc1)C(=O)Nc1ccc(Cl)cc1: 1.65
O=C(O)CC(=O)CC(=O)c1ccccc1: -23.4

// each listed compound needs a value for growth inhibition
1. CN(C)CSCCO
2. CC(C)(C)c1cc(C(=O)O)c2c(c1)C(=O)OC2(c1ccccc1)c1ccccc1C(=O)O (configuration not stated)
3. CCCC(O)(Cc1ccccc1)c1ccccc1 (configuration not stated)
4. OCCCCC1COC(c2ccccc2)O1 (configuration not stated)
5. c1cnc2c3ccncc3c3nc(-c4ccncc4)[nH]c3c2c1
6. COc1cccc2c1CCC1(O)OC(=O)CC21 (configuration not stated)
7. O=[N+]([O-])c1ccsc1Cl

Result:
1: -5.7; 2: 5.6; 3: -15.2; 4: -10.9; 5: -11.3; 6: -20.5; 7: -14.6

---

# test: NCI Yeast Anticancer Drug Screen. Data for the sgs1 mgt1 strain (AID 161);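 also: 0% = growth of cultures given vehicle only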
# conditionParameters: S. cerevisiae sgs1 mgt1 strain, at 50.0 µM
The panel holds about 79,000 compounds, 15% with a hit somewhere; the sample as a whole holds those more often. Active and inactive are the calls of the source. Cut-off read from the data, not from the text of the source: active = growth inhibition above about 70%; inactive = the rest.
Your response should consist of one outcome taken from Yes (active), No (inactive)

Before answering, review these 10 worked examples.
O=C1NC(=O)C2(N1)c1ccccc1-c1ccc(Br)cc12 (stereo not drawn): No
COc1ccc(C2(C(=O)O)CC(C)=C(C)CC2C(=O)O)cc1 (stereo not drawn): No
CS/C(=C\c1ccc2cc(C)ccc2[n+]1C)N1CCOCC1: No
CN(C)CCCNc1nnc(NCCCN(C)C)c2[nH]cnc12: No
OC1(C#Cc2ccccc2)c2ccccc2C(O)(C#Cc2ccccc2)c2ccccc21 (stereo not drawn): No
O=C1c2cccc3cc([N+](=O)[O-])cc(c23)C(=O)N1CCNCCNCCNCCN1C(=O)c2cccc3cc([N+](=O)[O-])cc(c23)C1=O: Yes
CC(=O)NC1c2ccccc2C(C)(C)C12CCC1(CC2)OCCO1 (stereo not drawn): No
Nc1nc(Cl)cc(Nc2ccc3c(c2)CCC3)n1: No
C=C(C)C(=O)Nc1ccc(NS(=O)(=O)c2ccc(C(C)CC)cc2)c(O)c1 (stereo not drawn): No
CCCCC(N)CSSCC(N)CCCC (stereo not drawn): No

# next compound below
Ask: What is the recorded call for this compound in the test? `CSc1ccc(NC(=O)Oc2cc(C)c(Cl)cc2C(C)C)cc1`
Result: Yes

---

Consider the following compounds; for each one, report its growth inhibition.
# test: NCI Yeast Anticancer Drug Screen. Data for the sgs1 mgt1 strain (AID 161);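 also: 0% = growth of cultures given vehicle only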
# conditionParameters: S. cerevisiae sgs1 mgt1 strain, at 50.0 µM, stronger effect = higher value
The panel holds about 79,000 compounds, 15% with a hit somewhere; the sample as a whole holds those more often. Active and inactive are the calls of the source. Rule as the data show it: active = growth inhibition above about 70%; inactive = the rest.

A selection of reference data follows.
CC(=O)Nc1c(C)ccc(C)c1C(=O)O: 8.25% (inactive)
CCC(=O)c1ccccc1C#N: 1.6% (inactive)
CC(C)N(C(=O)C12C3C4C5C3C1(C#N)C5C42)C(C)C (stereo unspecified): 12.1% (inactive)

// each listed compound needs a value for growth inhibition
1. COc1ccc(/C(C)=N/N=C(\C)c2ccc(OC)cc2)cc1
2. Cc1cc(Br)cc(C)c1NC(=O)C(=O)Nn1c(=S)[nH]c2ccccc2c1=O

Result:
["32.3% (inactive)", "-6.15% (inactive)"]

// each listed compound needs a value for growth inhibition
1. CCOC(=O)c1ccc(C(=O)OCC)n1-c1cc2cc(c1)CSCc1cc(cc(-n3c(C(=O)OCC)ccc3C(=O)OCC)c1)CSC2
2. Oc1ccccc1-c1n[nH]c(=S)n1/N=C/c1ccc(-c2ccc(Br)cc2)o1
3. Nc1nc(N)nc(-c2ccc([N+](=O)[O-])o2)n1
4. CC(=O)C(N=Nc1ccc(S(=O)(=O)NC2NCCC(C)N2)cc1)C(=O)Nc1ccccc1C (stereo unspecified)
5. CN(C1CCCCC1)S(=O)(=O)c1ccc(N)cc1

Result:
1. -20.9% (inactive)
2. -29.2% (inactive)
3. 29.9% (inactive)
4. 48% (inactive)
5. 12% (inactive)

Ask: So what does the record say about growth inhibition for `COc1ccc(C(=O)Nc2ccccc2C#N)cc1` ?
Result: -9.25% (inactive)

---

# test: NCI Yeast Anticancer Drug Screen. Data for the cln2 rad14 strain (AID 165);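 also: 0% = growth equal to vehicle treated cultures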
# conditionParameters: S. cerevisiae cln2 rad14 strain, at 50.0 µM
About 79,000 compounds went through this panel and 15% of them were active in at least one assay; those are over-represented in the sample as a whole. Active and inactive are the calls of the source. No stated cut-off is given here; in the data, active means growth inhibition above about 70%; inactive means the rest.
Your response should consist of one outcome taken from active, inactive

Before answering, review these 4 worked examples.
COC(=O)CCCC(=O)NC1=C(NCc2ccccc2)C(=O)c2ccccc2C1=O: inactive
O=C(NC(Cc1ccc(O)cc1)C(=O)O)SCc1ccccc1 (centres undefined): inactive
Cc1ccc(C(=O)Nc2ccc(CP(=O)(O)O)cc2CP(=O)(O)O)cc1NC(=O)c1cccc(N)c1: inactive
O=C(Nc1ccc(Cl)cc1)Nc1nnc2nc(CC(=O)c3ccc4ccccc4c3)c(=O)[nH]n12: inactive

Ask: What is the recorded call for this molecule in the test? `NC(=O)c1nnc2c(F)cccc2c1N`
Result: inactive

Ask: Consider next the molecule `CNc1ncn(-c2c(C)cccc2C)c(=O)n1` in the same way.
Result: inactive

Where do these numbers come from? They come from PubChem BioAssay (NCI).
